Test: chemical genetic growth profiling, strain panel (AID 1159580);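 note: tested at 20 µM; growth read once vehicle control cultures reached saturation at 30 °C; 1 = growth at the plate median or of vehicle wells; lower values mean less growth of the strain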
Details: S. cerevisiae deletion strains, growth OD, locus YHR129C, strain ARP1, hits give low values
The campaign covered roughly 5,500 compounds. About 2,000 (36%) were called active. Another 18% or so got no clear call; they are omitted. The list shows a part of the results.
This listing pairs molecules with measured normalized growth.
Respond using a number only.

molecule="COc1cc(S(C)=O)ccc1-c1nc2ncccc2[nH]1 (configuration not stated)" readout_number=1
molecule=N[C@H](Cc1cc(I)c(Oc2ccc(O)c(I)c2)c(I)c1)C(=O)O readout_number=1
molecule="C[C@@H]1CC2C3C[C@H](F)C4=CC(=O)C=C[C@]4(C)[C@@]3(F)[C@@H](O)C[C@]2(C)[C@@]1(O)C(=O)COC(=O)C(C)(C)C (some centres not stated)" readout_number=1.01
molecule="CC(=O)OCC(=O)[C@@]1(O)[C@H](OC(C)=O)CC2C3CCC4=CC(=O)C=C[C@]4(C)[C@@]3(F)[C@@H](O)C[C@@]21C (some centres not stated)" readout_number=0.977

Prompt: State its normalized growth: `O=C(O)c1ccccc1C(=O)Nc1ccc(S(=O)(=O)Nc2nccs2)cc1`
Completion: 1

---

Assay: chemical genetic growth profiling, strain panel (AID 1159580)
Details: S. cerevisiae deletion strains, growth OD, locus YNL250W, strain rad50, hits give low values
Hit rate of the full screen: of about 5,500 compounds, about 2,000 (36%) were called active. Another 18% or so got no clear call; they are omitted. The list shows a part of the results.
# normalized growth listing for each entry below
The answer should be written as a number, with no unit following it.

Completed entries (count: 5):
compound="C[C@H](CCC(=O)O)[C@H]1CCC2C3C(CC[C@@]21C)[C@@]1(C)CC[C@@H](O)C[C@H]1C[C@H]3O (stereo partly drawn)" recorded_endpoint="normalized growth" readout_number=1.03
compound=CC(=O)N=c1sc(S(N)(=O)=O)nn1C recorded_endpoint="normalized growth" readout_number=1.04
compound="CC(CCC(=O)O)[C@H]1CCC2C3CC[C@@H]4C[C@H](O)CC[C@]4(C)C3CC[C@@]21C (stereo partly drawn)" recorded_endpoint="normalized growth" readout_number=1.02
compound="CCCCCC1C(=O)CCC1CC(=O)OC (stereo not drawn)" recorded_endpoint="normalized growth" readout_number=0.945
compound="CCCCCC1C(=O)CCC1CC(=O)O (stereo not drawn)" recorded_endpoint="normalized growth" readout_number=0.976

Prompt: Tell me normalized growth reported for NCC(CC(=O)O)c1ccc(Cl)cc1 (stereo not drawn)
Completion: 0.986

Prompt: Tell me measured normalized growth for `O=C(Nc1ccccc1)c1ccccc1O` please.
Completion: 0.952

Prompt: For COC(=O)CCC(C)C1CCC2C3CC[C@@H]4C[C@H](O)CC[C@]4(C)C3C[C@H](O)[C@]12C (stereo partly drawn) , write its normalized growth.
Completion: 1.04

Prompt: Please give the documented normalized growth of CC(C)CCCC(C)C1CCC2C3CC[C@H]4CCCC[C@]4(C)C3CC[C@]12C (stereo partly drawn)
Completion: 0.986

Prompt: Recall and state the measured normalized growth for `S=P(N1CC1)(N1CC1)N1CC1` .
Completion: 0.995

Prompt: Complete the entry with normalized growth for `O=c1[nH]cnc2[nH]ncc12`
Completion: 1.01

Prompt: Read off the recorded normalized growth for `COc1cc(OC)c(OC)cc1C=O`
Completion: 0.964

Prompt: Please list normalized growth recorded for the compound `O=c1cc(-c2ccccc2)oc2cc(O)c(O)c(O)c12`
Completion: 0.76

---

Assay: chemical genetic growth profiling, strain panel (AID 1159580);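 note: tested at 20 µM; growth read once vehicle control cultures reached saturation at 30 °C; 1 = growth at the plate median or of vehicle wells; lower values mean less growth of the strain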
Settings: S. cerevisiae deletion strains, growth OD, locus YML016C, strain PPZ1
About 2,000 (36%) of roughly 5,500 compounds were called active. Roughly 18% stayed inconclusive and do not appear here. Cut-off read from the data, not from the text of the source: active = normalized growth mostly below about 0.91 (no sharp cut-off); inconclusive = no clear call, values can overlap the other calls; inactive = mostly above about 0.92. The list shows a part of the results.
Pick one and only one: true = active, false = inactive

Answered examples (6):
molecule="CC1CC2C3CC(F)C4=CC(=O)C=CC4(C)C3(F)C(O)CC2(C)C1C(=O)COC(=O)C(C)(C)C (configuration not stated)" assigned_class=false
molecule=COC(=O)c1c(C)cc(OC(=O)c2c(C)c(Cl)c(O)c(C=O)c2O)c(C)c1O assigned_class=false
molecule=COc1cc(OC)c(OC)cc1C=O assigned_class=false
molecule="CCN(CC)C(C)CN1c2ccccc2Sc2ccccc21 (configuration not stated)" assigned_class=false
molecule=COc1cc(C)c(C(=O)Oc2cc(C)c(C(=O)O)c(O)c2C)c(OC)c1C assigned_class=false
molecule=C[C@H](N)[C@H](O)c1ccccc1 assigned_class=false

Prompt: Please share the test call associated with `O=c1cc(-c2ccccc2)oc2cc(O)c(O)c(O)c12` .
Completion: true

Prompt: Which outcome was assigned to `CNCCCN1c2ccccc2CCc2ccccc21` in this test?
Completion: false

Prompt: What is the recorded call for this molecule in the test? CC(CN(C)C)CN1c2ccccc2Sc2ccccc21 (configuration not stated)
Completion: false

Prompt: Hi team, can someone confirm the assay call for CC(=O)O[C@H]1CC[C@]2(C)C3=CC(=O)[C@@]4(C)C(C[C@@H]5OC6(OCC(C)CC6Br)[C@@H](C)[C@@H]54)C3CC[C@H]2C1 (some centres not stated) ?
Completion: false

Prompt: For `C[C@@H](N)[C@@H](O)c1ccccc1` , which call appears in the assay record?
Completion: false

---

Experiment: chemical genetic growth profiling, strain panel (AID 1159580);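 note: tested at 20 µM; growth read once vehicle control cultures reached saturation at 30 °C; 1 = growth at the plate median or of vehicle wells; lower values mean less growth of the strain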
Conditions: S. cerevisiae deletion strains, growth OD, locus YJL095W, strain BCK1
The whole screen tested about 5,500 compounds, of which about 2,000 (36%) were called active. Inconclusive results (about 18%) are left out. Rule as the data show it: active = normalized growth mostly below about 0.91 (no sharp cut-off); inconclusive = no clear call, values can overlap the other calls; inactive = mostly above about 0.92. The list shows a part of the results.
Your response should consist of one outcome taken from 1 = active, 0 = inactive

compound=CNC(=O)n1nc(C)c(Cc2csc3ccc(Cl)cc23)c1C assigned_class=0

Prompt: For `C/C=C/C(=O)N(CC)c1ccccc1C` , what call appears in the results of this test?
Completion: 0

Prompt: Record request — test call for `COC(=O)c1c(C)cc(OC(=O)c2c(C)c(Cl)c(O)c(C=O)c2O)c(C)c1O`
Completion: 0

Prompt: State the result this test recorded for CC1(C)C(=O)C=C[C@@]2(C)C1CC(=O)[C@@]1(C)C3=CC(=O)O[C@@H](c4ccoc4)[C@]3(C)CCC12 (some centres not stated) .
Completion: 0

Prompt: Record lookup: outcome of this test for `Cc1c(S(=O)(=O)c2ccc(Cl)cc2)csc1C(=O)NNc1cccc(Cl)c1` ?
Completion: 0

Prompt: Recorded test outcome, item CCC(=O)c1ccc2c(c1)N(CC(C)N(C)C)c1ccccc1S2 (configuration not stated)
Completion: 0

Prompt: Could you check what this test reported for `O=c1cc(-c2ccccc2)oc2cc(O)c(O)cc12` ?
Completion: 0

Prompt: Would you mind telling me which call this test gave `COc1c(Cl)ccc(Cl)c1C(=O)O` ?
Completion: 0

Prompt: Please indicate how the test categorized CC1CC2C3CC(F)C4=CC(=O)C=CC4(C)C3(F)C(O)CC2(C)C1C(=O)COC(=O)C(C)(C)C (configuration not stated) .
Completion: 0

Prompt: Lab log entry: `c1ccc2nc(N3CCNCC3)ccc2c1` — outcome as called in the assay?
Completion: 0

---

Assay: chemical genetic growth profiling, strain panel (AID 1159580);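 note: tested at 20 µM; growth read once vehicle control cultures reached saturation at 30 °C; 1 = growth at the plate median or of vehicle wells; lower values mean less growth of the strain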
Conditions: S. cerevisiae deletion strains, growth OD, locus YDL134C, strain PPH21
The whole screen tested about 5,500 compounds, of which about 2,000 (36%) were called active. Inconclusive results (about 18%) are left out. Cut-off read from the data, not from the text of the source: active = normalized growth mostly below about 0.91 (no sharp cut-off); inconclusive = no clear call, values can overlap the other calls; inactive = mostly above about 0.92. The list shows a part of the results.
Give one outcome, nothing more. List: active, inactive

compound=N#Cc1csc([N+](=O)[O-])c1 assigned_class=active
compound="CN(C)CCC(c1ccc(Br)cc1)c1ccccn1 (configuration not stated)" assigned_class=inactive
compound="C[C@H](CCC(=O)O)[C@H]1CCC2C3C(CC[C@@]21C)[C@@]1(C)CC[C@@H](O)C[C@H]1C[C@H]3O (some centres not stated)" assigned_class=inactive
compound="CC1CC2C3CC(F)C4=CC(=O)C=CC4(C)C3(F)C(O)CC2(C)C1C(=O)COC(=O)C(C)(C)C (configuration not stated)" assigned_class=active

Prompt: So what was the verdict on `C[C@@H](N)[C@@H](O)c1ccccc1` in this test?
Completion: inactive

Prompt: Would you mind telling me which call this test gave `Cc1nc2ccccn2c(=O)c1CCN1CCC(C(=O)c2ccc(F)cc2)CC1` ?
Completion: inactive

Prompt: Could you check what this test reported for `Nc1cc(-c2ccncc2)c[nH]c1=O` ?
Completion: active

Prompt: What outcome does the record of this test show for `N/C(=N/O)c1csc(-c2ccc(F)cc2F)n1` ?
Completion: inactive

Prompt: Returns: the outcome recorded for `Nc1ccncc1` in this assay.
Completion: inactive

Prompt: Lab log entry: `O=C(NNc1c(Cl)cc(Cl)cc1Cl)NC(=O)c1ccccc1F` — outcome as called in the assay?
Completion: inactive

Prompt: Hello, I am checking results. What call was entered for `C[C@H](N)[C@H](O)c1ccccc1` ?
Completion: inactive

Prompt: Fill in: this test's call for `C/C(=N/Nc1c(Cl)cc(Cl)cc1Cl)c1cc(F)ccc1OC(=O)c1ccccc1F` is ___
Completion: inactive

Prompt: Name the outcome recorded for `Cc1nc2sccn2c(=O)c1CCN1CCC(=C(c2ccc(F)cc2)c2ccc(F)cc2)CC1` in the assay.
Completion: active

Prompt: I would be grateful if you could indicate the recorded call for CC(C)CCCC(C)C1CCC2C3CC[C@H]4CCCC[C@]4(C)C3CC[C@]12C (some centres not stated) .
Completion: inactive

Prompt: Please indicate how the test categorized `O=c1cc(-c2ccccc2)oc2cc(O)cc(O)c12` .
Completion: inactive

Prompt: Call for entry `COc1cc(OC)c2c3c1C(=O)c1c(OC)cc(C)c4c(OC)cc(c-3c14)C(C)(C)C2=O` :
Completion: inactive

Prompt: Answer briefly: the call reported for `O=c1c2cc(NS(=O)(=O)c3ccc(Cl)cc3)ccc2oc2ncccc12` in this assay.
Completion: inactive
